Entry source: BindingDB's records for patent US20250214932

Task for the reader: assign each of the following compounds its reported pIC50.
biological target: Voltage-dependent T-type calcium channel subunit alpha-1G (Homo sapiens); assay: In Vitro Cav3.1 Single Point and IC50 (VDB) Data
Sequence (O43497 whole entry): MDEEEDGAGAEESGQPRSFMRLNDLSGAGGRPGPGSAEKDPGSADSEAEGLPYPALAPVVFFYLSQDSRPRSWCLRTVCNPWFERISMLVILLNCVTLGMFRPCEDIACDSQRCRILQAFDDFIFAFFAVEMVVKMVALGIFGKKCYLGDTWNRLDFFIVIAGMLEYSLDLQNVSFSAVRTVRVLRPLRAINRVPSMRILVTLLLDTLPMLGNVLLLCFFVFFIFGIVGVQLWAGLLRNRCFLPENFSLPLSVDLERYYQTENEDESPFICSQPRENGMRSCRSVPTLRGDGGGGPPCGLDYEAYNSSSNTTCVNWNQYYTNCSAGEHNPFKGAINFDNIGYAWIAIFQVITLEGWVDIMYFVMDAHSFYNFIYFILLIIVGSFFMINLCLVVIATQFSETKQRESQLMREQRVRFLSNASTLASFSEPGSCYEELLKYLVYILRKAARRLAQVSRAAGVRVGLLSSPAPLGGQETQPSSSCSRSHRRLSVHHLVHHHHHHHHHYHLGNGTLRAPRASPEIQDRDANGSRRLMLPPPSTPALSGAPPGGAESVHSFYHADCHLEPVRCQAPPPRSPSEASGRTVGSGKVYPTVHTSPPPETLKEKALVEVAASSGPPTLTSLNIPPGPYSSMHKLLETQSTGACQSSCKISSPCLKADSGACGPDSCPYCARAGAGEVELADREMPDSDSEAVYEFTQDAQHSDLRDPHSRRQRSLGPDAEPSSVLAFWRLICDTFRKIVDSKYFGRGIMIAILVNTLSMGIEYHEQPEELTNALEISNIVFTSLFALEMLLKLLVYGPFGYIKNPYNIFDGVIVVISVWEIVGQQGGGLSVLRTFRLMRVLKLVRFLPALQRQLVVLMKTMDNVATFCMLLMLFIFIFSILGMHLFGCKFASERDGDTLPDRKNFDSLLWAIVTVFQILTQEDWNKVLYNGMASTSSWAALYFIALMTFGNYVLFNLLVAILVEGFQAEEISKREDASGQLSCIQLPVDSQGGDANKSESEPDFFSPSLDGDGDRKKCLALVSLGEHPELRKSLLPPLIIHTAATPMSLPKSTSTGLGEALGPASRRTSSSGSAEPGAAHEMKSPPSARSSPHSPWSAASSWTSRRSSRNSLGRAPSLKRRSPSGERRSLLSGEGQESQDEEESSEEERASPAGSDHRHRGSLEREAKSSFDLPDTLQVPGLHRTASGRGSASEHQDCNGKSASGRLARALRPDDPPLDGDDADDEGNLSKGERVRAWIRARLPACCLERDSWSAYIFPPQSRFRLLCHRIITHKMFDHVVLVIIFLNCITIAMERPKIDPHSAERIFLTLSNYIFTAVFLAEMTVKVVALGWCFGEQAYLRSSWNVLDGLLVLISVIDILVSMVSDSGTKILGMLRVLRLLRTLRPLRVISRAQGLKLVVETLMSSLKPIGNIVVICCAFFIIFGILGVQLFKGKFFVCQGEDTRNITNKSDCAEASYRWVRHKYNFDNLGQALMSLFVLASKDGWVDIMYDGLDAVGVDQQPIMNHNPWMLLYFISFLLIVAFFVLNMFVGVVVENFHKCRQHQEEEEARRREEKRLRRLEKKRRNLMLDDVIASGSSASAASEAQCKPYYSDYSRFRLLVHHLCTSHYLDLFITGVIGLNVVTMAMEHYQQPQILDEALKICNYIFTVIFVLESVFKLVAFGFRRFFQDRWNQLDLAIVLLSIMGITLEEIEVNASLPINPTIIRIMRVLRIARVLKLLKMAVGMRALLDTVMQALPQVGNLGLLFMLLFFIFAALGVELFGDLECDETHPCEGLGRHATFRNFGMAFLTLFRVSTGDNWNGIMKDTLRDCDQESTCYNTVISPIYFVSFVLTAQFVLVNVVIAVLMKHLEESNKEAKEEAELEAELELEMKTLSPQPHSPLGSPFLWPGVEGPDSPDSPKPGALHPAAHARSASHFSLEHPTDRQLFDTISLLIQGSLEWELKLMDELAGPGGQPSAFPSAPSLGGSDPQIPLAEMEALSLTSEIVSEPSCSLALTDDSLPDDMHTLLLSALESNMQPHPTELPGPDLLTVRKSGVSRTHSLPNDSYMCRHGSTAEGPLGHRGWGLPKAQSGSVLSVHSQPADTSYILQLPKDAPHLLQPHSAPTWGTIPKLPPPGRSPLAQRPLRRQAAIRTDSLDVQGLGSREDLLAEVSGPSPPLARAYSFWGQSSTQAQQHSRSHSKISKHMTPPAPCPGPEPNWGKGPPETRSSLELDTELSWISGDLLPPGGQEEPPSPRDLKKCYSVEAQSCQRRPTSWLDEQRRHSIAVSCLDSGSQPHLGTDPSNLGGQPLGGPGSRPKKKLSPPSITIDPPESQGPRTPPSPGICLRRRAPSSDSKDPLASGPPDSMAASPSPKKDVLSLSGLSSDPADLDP
Numbers only, as −log10 of the molar value.

COc1cc(F)cc(NC(=O)C2CCC3(CC2)CN(CC(=O)NC(C)(C)C)C3)c1 [US20250214932, Example 46]    6.66
COc1cc(Cl)cc(NC(=O)C2CCC3(CC2)CN(CC2(C#N)CC2)C3)c1 [US20250214932, Example 129]    5.87
O=C(NC12CC3CC(CC(C3)C1)C2)C1CCC2(CC1)CN(CC1(O)CCC(F)(F)CC1)C2 [US20250214932, Example 153]    6.73
O=C(CN1CC2(CCC(C(=O)Nc3cc(F)cc(C(F)F)c3)CC2)C1)NC1(C(F)(F)F)CCC1 [US20250214932, Example 85]    6.79
O=C(Nc1cc(F)cc(Cl)c1)C1CCC2(CC1)CN(CC(O)C1CCCCC1)C2 (centres undefined) [US20250214932, Example 68]    6.77
Cc1cc(F)cc(NC(=O)C2CCC3(CC2)CN(CC(=O)NC(C)(C)C)C3)c1 [US20250214932, Example 48]    6.71
O=C(Nc1cc(F)cc(C(F)F)c1)C1CCC2(CC1)CN(CCNC(=O)C1(C(F)(F)F)CCC1)C2 [US20250214932, Example 52]    6.58

Next:
Recorded pIC50 (compound O=C(Nc1cc(F)cc(C(F)F)c1)C1CCC2(CC1)CN(CC(F)(F)C1CCCC1)C2 [US20250214932, Example 100] ): 6.39
